# Study Target: CELF1 RRM123 (Xenopus, UniProt O57406 1-214+385-489, internal_change)
# Sequence (O57406 other isoform, or with tags, fused parts or gaps): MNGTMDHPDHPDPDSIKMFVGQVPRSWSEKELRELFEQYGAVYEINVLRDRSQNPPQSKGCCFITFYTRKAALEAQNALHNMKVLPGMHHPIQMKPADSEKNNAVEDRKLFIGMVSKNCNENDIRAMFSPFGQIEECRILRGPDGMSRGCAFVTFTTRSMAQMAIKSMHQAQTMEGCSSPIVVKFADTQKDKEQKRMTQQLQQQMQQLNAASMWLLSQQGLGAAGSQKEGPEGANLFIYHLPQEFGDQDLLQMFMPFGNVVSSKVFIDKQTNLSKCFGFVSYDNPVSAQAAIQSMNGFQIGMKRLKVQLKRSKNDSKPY
# Experiment Summary: ITC; n=1.64; ITC: 25 mM potassium phosphate, 100 mM NaCl, pH 7.0, 25 C, 12.5 uM protein, 125 uM RNA in syringe; NMR: same buffer, 298 K, ~200-250 uM protein
# Test Settings: protein: recombinant; tags: N-terminal His; single strand
Test Readout: Kd (nM)
Numeric answer only, unit nM assumed.

Q: Specify measured Kd for UGUUUUUUGU (ssRNA) [EDEN-4U] .
Result: 2080
